protocol.description: inhibition of Brca1/Bard1 split-luciferase complementation, confirmation, counter-screen for Mdm2/MdmX interaction inhibitor project, luminescence, single concentration (AID 504668)
reported.conditions: Brca1/Bard1 bimolecular luciferase complementation counterscreen, at 8 µM, stronger effect = higher value
recorded.metric: inhibition (%)
Lab book: enter the figure in %, no units written.

Value lookup for inhibition; key = "Cc1cc(C)nc(N/N=C/c2cc(Br)ccc2O)n1"
26.2

Next: "COc1cc(NC(=S)NC(=O)c2ccc(C(C)(C)C)cc2)ccc1NC(=O)c1cccs1"
27.7

Then "COC(=O)C1=C(C)NC(C)=C(C(=O)OC)C1c1ccccc1[N+](=O)[O-]" ?
28

Quick one: "COc1cc(/C=C2\CC/C(=C\c3cc(OC)c(O)c(OC)c3)C2=O)cc(OC)c1O"
25.6

Now consider "O=C(Nc1nc(-c2ccccn2)cs1)c1ccc(F)c(S(=O)(=O)N2CCOCC2)c1" .
25.6

// same read-out, input: "COC(=O)c1sc(NC(=O)c2cc(-c3ccccc3)nc3ccccc23)c(C#N)c1C"
35.4

Also "CCOc1cc(NC(=O)c2ccco2)c(OCC)cc1NC(=O)COc1ccccc1C" , if possible.
33.4

Same lookup for "COc1ccc(Cc2nnc(N/N=C/c3ccc(O)cc3)[nH]c2=O)cc1OC" , please.
24.8

Field entry: "COc1cccc(-c2sc3ccc(OC)cc3c2-c2ccc(OCCN3CCCC3)cc2)c1"
27.8

Input "CCOc1ccc(CNC(=O)c2cc3oc4ccccc4c3n2C)cc1"
25.6

Further cases:
Entry "NC(=O)c1oc2ccccc2c1NC(=O)c1ccc([N+](=O)[O-])o1" : reported inhibition = ?
31.8

"Cc1ccc(NC(=O)Nc2nnc(-c3ccncc3)s2)cc1C" , same question.
23.3

Can you check "Cc1noc(-c2ccc(C(F)(F)F)cc2)c1NC(=O)Nc1ccc(Cl)cc1" next?
24.2

* * *

assayed.target: Sentrin-specific protease 8 (Homo sapiens)
protocol.description: SENP8 protease inhibitors, retest, confirmation, biochemical, luminescence, single concentration (AID 488912)
reported.conditions: Recombinant SENP8, Z-RLRGG-aminoluciferin luminescence, 60 min; at 12.5 µM; stronger effect = higher value
The list shows a part of the results.
inhibition vs 50%: at or above is Met, below is Not met.

Examples with answers:
Exam item: decide whether the reported inhibition for "COc1cc(SC)ccc1C(=O)Nc1nc(C)cs1" is at least 50%.
Met

Please answer likewise for "Cc1cc(N=Nc2ccc3ccccc3c2)ccc1O"
Met

Same question, "CC(=C/c1ccccc1)/C=N/NC(=O)c1cc(C)oc1C" this time
Not met

Now the same for "CCc1ccc2oc(-c3ccc(N)cc3)nc2c1"
Met

More entries:
Check the entry "c1ccc2sc(NN=C3CCCC3)nc2c1" : does inhibition equal or exceed 50%?
Met

Item: "Cc1ccc2nc(-c3ccc(Br)cc3)cn2c1"
Not met

And for "O=c1[nH]c(CCl)nc2cc(-c3ccc(Cl)cc3)sc12" ?
Not met

And what about the molecule "CCSc1nnc(NC(=O)c2ccc(C)cc2)s1" ?
Not met

Same again, this time with "O=C(Nc1cccc2ccccc12)c1onc2c1CCCC2"
Not met

And then "COc1ccccc1N=Cc1c(O)c2ccccc2oc1=O" , what is it?
Not met

Please answer likewise for "Oc1cccc2ccc(/C=C/c3ccc(Br)s3)nc12"
Not met

// same read-out, input: "Cc1cccc(NC(=O)c2ccc3ccccc3n2)n1"
Met

* * *

assayed.target: Tumor necrosis factor receptor superfamily member 10B (Homo sapiens)
protocol.description: caspase-8 TRAIL sensitization, hit retest, confirmation, cell-based, NB7+caspase-8, with/without TRAIL, luminescence panel (AID 651596)
reported.conditions: NB7 neuroblastoma + caspase-8, TRAIL sensitization, luminescence viability, with TRAIL, mean of runs, at 10 µM, stronger effect = higher value
recorded.metric: activity (%)
Unit % implied. Number only.

Below, 4 compounds whose answers are already recorded.
Record lookup: for Tumor necrosis factor receptor superfamily member 10B (Homo sapiens), what activity belongs to "Cn1c(/C=C/c2ccc([N+](=O)[O-])o2)nc2ccccc2c1=O" ?
50.8

Repeat with "O=C(C[C@@H]1C/C=C/CC[C@H](Cc2ccc(F)cc2)C(=O)OC[C@@H](Cc2ccccc2)NC1=O)N[C@H](CO)Cc1ccccc1"
87.7

Same lookup for "COc1ccc(-n2cc(C(=O)c3ccccc3O)cn2)cc1" , please.
39.1

Again, but for "Cc1cc(-c2ccccc2)nc(Nc2nc3c(C)cccc3c(=O)[nH]2)n1"
59.1

Attention now turns to another entry.
Query the reported activity for Tumor necrosis factor receptor superfamily member 10B (Homo sapiens); item: "COc1cccc2sc3ccc(C#CC4(O)CCCCC4)cc3c(=O)c12"
46.1

* * *

assayed.target: Tumor necrosis factor receptor superfamily member 10B (Homo sapiens)
protocol.description: caspase-8 TRAIL sensitization, hit retest, confirmation, cell-based, NB7+caspase-8, with/without TRAIL, luminescence panel (AID 651596)
reported.conditions: NB7 neuroblastoma + caspase-8, TRAIL sensitization, luminescence viability, with TRAIL, mean of runs, at 10 µM, stronger effect = higher value
Threshold 60%: activity strictly smaller gives TRUE, otherwise FALSE.

For orientation, consider the following solved cases.
Identify whether the compound "O=C(Nc1ccc2c(c1)OCCO2)c1ccccn1" records activity below 60%.
FALSE

Request: "CC(=O)c1c(C)[nH]c(C(=O)Nc2ccc(C)cn2)c1C"
FALSE

Request: "Cc1ccc(NC(=O)CSc2nc3ccc(Nc4nc(N5CCOCC5)nc(N5CCOCC5)n4)cc3s2)cc1"
TRUE

More entries:
Determine whether this compound shows activity lower than 60% (ties excluded): "CN(C)S(=O)(=O)c1ccc(-c2cn3ccccc3n2)cc1"
FALSE

* * *

protocol.description: caspase-8 TRAIL sensitization, hit retest, confirmation, cell-based, NB7+caspase-8, with/without TRAIL, luminescence panel (AID 651596)
reported.conditions: NB7 neuroblastoma + caspase-8, without TRAIL, luminescence viability, without TRAIL, mean of runs, at 10 µM
recorded.metric: activity (%)
The answer is to be given in %; state only the numeric part.

Worked examples follow.
Record request: activity value, item "O=C(CC1CCCC1)Nc1nc2ccccc2[nH]1"
62.4

"CCN1CCN(CCCNC(=O)c2ccc3c(c2)NC(=O)/C(=C\c2cccc(C)c2)S3)CC1" ?
89.2

What about this compound? "O=C(Nc1ccc2c(c1)OCCO2)c1cccc2nc3ccccc3nc12"
77.5

Record: "Cc1ccc(-c2cc(-c3ccccc3)no2)c(O)c1"
60.2

// next record "Cc1nnc(NC(=O)c2ccc(S(=O)(=O)C(F)F)cc2)s1"
42.9

Next:
Which measured activity value corresponds to "Cc1ccc2nc(-c3ccccc3)nn2c1" ?
80.3

Repeat for the following compound: "O=c1/c(=C/c2ccccn2)sc2nc3ccccc3n12"
14.9

One more compound: "COc1cc(/C=N/NC(=O)c2nnn(-c3nonc3N)c2C)ccc1OCc1ccc(Cl)cc1"
20.6

Same again, this time with "COCCn1c(C)cc(C(=O)COC(=O)c2ccc(Cl)c(S(N)(=O)=O)c2)c1C"
52.4

Query "c1ccc2nc3c(nc2c1)[nH]c1ccccc13" next
44.5

// query: "Cn1c(N)c(C(=O)CCl)c(=O)n(Cc2ccccc2)c1=O"
77.9

* * *

assayed.target: Tumor necrosis factor receptor superfamily member 10B (Homo sapiens)
protocol.description: caspase-8 TRAIL sensitization, hit retest, confirmation, cell-based, NB7+caspase-8, with/without TRAIL, luminescence panel (AID 651596)
reported.conditions: NB7 neuroblastoma + caspase-8, TRAIL sensitization, luminescence viability, with TRAIL, mean of runs, at 10 µM, stronger effect = higher value
recorded.metric: activity (%)
Report only the number, with the unit % understood.

Before answering, review these 4 worked examples.
Need activity of "O=C(CCl)N(Cc1cccc([N+](=O)[O-])c1)c1cccc(Cl)c1" , thanks.
99.1

Param item: "COc1ccc(/C(N)=N/OC(=O)c2ccc3c(c2)OCO3)cc1OC"
94.2

Try this compound too: "O=C1CN(C(=O)Cn2ncc(Cl)c(Cl)c2=O)c2ccccc2N1"
99.4

# iterate: "CCCc1c(C(=O)N/N=C/C=C/c2ccccc2)nnn1-c1nonc1N"
47.5

More entries:
I'd like to know its activity. The compound in question is "Cc1nc2c(-c3ccccc3)cnn2c(N)c1-c1ccccc1"
92.6

// repeat for "CCOC(=O)c1sc(NC(=O)c2ccccc2OC)nc1C" and report
26.1

Next: "Cc1cccn2c(=O)c3cc(C(=O)NCCc4ccccc4)c(=N)n(Cc4ccco4)c3nc12"
19.5

Entry to check: "COc1ccc2nc(NC(=O)c3ccccc3F)sc2c1"
78.1

* * *

Reported inhibition values for a set of molecules
protocol.description: inhibition of Brca1/Bard1 split-luciferase complementation, confirmation, counter-screen for Mdm2/MdmX interaction inhibitor project, luminescence, single concentration (AID 504668)
reported.conditions: Brca1/Bard1 bimolecular luciferase complementation counterscreen, at 8 µM, stronger effect = higher value
// return numeric value only (unit: %, not printed)

The cases that follow already have their inhibition on record.
Could you share which inhibition value was measured for "O=C(Nc1cccc([N+](=O)[O-])c1)c1cc2ccccc2cc1O" ?
31

Param item: Cc1cc([N+](=O)[O-])cc(/C=N\NC(=O)C2COc3ccccc3O2)c1O (centres undefined)
27.6

Please answer likewise for "O=C(/C=C/c1ccc2ccccc2n1)N1CCN(S(=O)(=O)c2ccc(F)cc2)CC1"
35.1

Proceed to CC(C)CCNC(=O)C(c1ccncc1)N(Cc1cccs1)C(=O)Cn1nnc(-c2ccc(F)cc2)n1 (centres undefined)
26.3

And "Cc1oc2c(Cl)c(Cl)c(O)c(CN(C)C)c2c1C(=O)c1ccc(Cl)cc1" ?
26.8

Also "Clc1ccc(Cn2ncc3c(NCc4ccco4)ncnc32)c(Cl)c1" ?
31.2

Same lookup for "COC(=O)[C@@]1(Cc2ccccc2)[C@H]2C(=O)N(Cc3ccccc3)C(=O)[C@H]2[C@H]2CN=C(SCc3ccc(C#N)cc3)N21" , please.
28.4

Could you do the same for "COc1cccc(/C=C2\SC(=S)N(CCCC(=O)N3CCCC3)C2=O)c1" , please?
35

Now consider a different molecule.
Quick one: inhibition of "O=C(CCCN1C(=O)/C(=C\c2ccco2)SC1=S)Nc1cccc2ccccc12" ?
28.5

Where do the numbers come from? From PubChem BioAssay.
